Biological target: PTPN2 (HiBIT-PTPN2 in 293T.109 cells) (Homo sapiens)
Construct: expressed in transfected cells; host or cells: 293T.109 (293T WT from ATCC)
Sequence (P17706 1-415): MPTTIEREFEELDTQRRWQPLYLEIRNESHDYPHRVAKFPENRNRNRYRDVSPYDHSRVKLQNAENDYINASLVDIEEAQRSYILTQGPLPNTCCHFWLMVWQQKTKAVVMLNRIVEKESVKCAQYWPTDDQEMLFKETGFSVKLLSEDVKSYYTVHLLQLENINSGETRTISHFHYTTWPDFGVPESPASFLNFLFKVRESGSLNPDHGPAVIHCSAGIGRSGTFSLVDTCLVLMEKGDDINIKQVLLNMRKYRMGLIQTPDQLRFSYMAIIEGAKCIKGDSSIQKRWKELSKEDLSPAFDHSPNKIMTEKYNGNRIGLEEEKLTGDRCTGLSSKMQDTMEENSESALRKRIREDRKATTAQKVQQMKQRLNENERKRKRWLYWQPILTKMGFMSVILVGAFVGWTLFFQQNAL
Assay: HiBiT Degradation 293T.109 PTPN2 (Nano-Glo HiBiT Lytic Assay)
Type: cell-based
Settings: 24.0 hours
Property name: DC50

>  <Molecule>
CC1(C)C[C@@H](Nc2cccc(-c3sc(C(=O)O)c(OCC(=O)O)c3Cl)c2)CCN1S(=O)(=O)Cc1cccc(NC(=O)N2CCC(c3cnc4c(c3)c3ccccc3n4C3CCC(=O)NC3=O)CC2)c1 (stereo partly drawn)

>  <Result>
0.2 to 1 µM

$$$$
>  <Molecule>
CC1(C)C[C@@H](Nc2cccc(-c3sc(C(=O)O)c(OCC(=O)O)c3Cl)c2)CCN1S(=O)(=O)Cc1cccc(NC(=O)CNc2ccc3c(c2)C(=O)N(C2CCC(=O)NC2=O)C3=O)c1 (stereo partly drawn)

>  <Result>
0.2 to 1 µM

$$$$
>  <Molecule>
Cn1c(=O)n(C2CCC(=O)NC2=O)c2ccc([C@@H]3CCN(C(=O)Nc4cccc(CS(=O)(=O)N5CC[C@H](Nc6cccc(-c7sc(C(=O)O)c(OCC(=O)O)c7Cl)c6)CC5(C)C)c4)C[C@@H]3F)cc21 (stereo in doubt)

>  <Result>
< 0.05 µM

$$$$
>  <Molecule>
CC1(C)C[C@@H](Nc2cccc(-c3sc(C(=O)O)c(OCC(=O)O)c3Cl)c2)CCN1S(=O)(=O)Cc1cccc(NC(=O)N2CCC(c3ccc4c(c3)CCN4C3CCC(=O)NC3=O)CC2)c1 (stereo partly drawn)

>  <Result>
0.2 to 1 µM

$$$$
>  <Molecule>
CC(C)n1c(=O)n(C2CCC(=O)NC2=O)c2ccc(C3CCN(C(=O)Nc4cccc(CS(=O)(=O)N5CC[C@H](Nc6cccc(-c7sc(C(=O)O)c(OCC(=O)O)c7Cl)c6)CC5(C)C)c4)CC3)cc21 (stereo partly drawn) [Example 87]

>  <Result>
0.05 to 0.2 µM

$$$$
>  <Molecule>
CC(C)(c1cccc(NC(=O)CCCCCCNC(=O)CNc2ccc3c(c2)CN(C2CCC(=O)NC2=O)C3=O)c1)S(=O)(=O)N1CCC(Nc2cccc(-c3sc(C(=O)O)c(OCC(=O)O)c3Cl)c2)CC1 (stereo not drawn)

>  <Result>
0.2 to 1 µM

$$$$
>  <Molecule>
CC1(C)C[C@@H](Nc2cccc(-c3sc(C(=O)O)c(OCC(=O)O)c3Cl)c2)CCN1S(=O)(=O)Cc1cccc(NC(=O)C2CN(C(=O)CNc3cccc4c3CN(C3CCC(=O)NC3=O)C4=O)C2)c1 (stereo partly drawn)

>  <Result>
< 0.05 µM

$$$$
>  <Molecule>
CC1(C)C[C@@H](Nc2cccc(-c3sc(C(=O)O)c(OCC(=O)O)c3Cl)c2)CCN1S(=O)(=O)Cc1cccc(NC(=O)[C@H]2CC[C@@H](c3ccc4c5c(cccc53)C(=O)N4C3CCC(=O)NC3=O)CC2)c1 (stereo partly drawn)

>  <Result>
0.05 to 0.2 µM

$$$$
>  <Molecule>
Cn1c(=O)n([C@@H]2CCC(=O)NC2=O)c2ccc(C3CCN(C(=O)Nc4cccc(CS(=O)(=O)N5CC[C@H](Nc6cccc(-c7sc(C(=O)O)c(OCC(=O)O)c7Cl)c6)CC5(C)C)c4)CC3)cc21 (single isomer, unassigned)

>  <Result>
< 0.05 µM

$$$$

====

Target: PTPN2 (B16F10.4 cells) (Mus musculus)
Construct: HiBiT; host or cells: B16F10.4
Sequence (Q06180 whole entry): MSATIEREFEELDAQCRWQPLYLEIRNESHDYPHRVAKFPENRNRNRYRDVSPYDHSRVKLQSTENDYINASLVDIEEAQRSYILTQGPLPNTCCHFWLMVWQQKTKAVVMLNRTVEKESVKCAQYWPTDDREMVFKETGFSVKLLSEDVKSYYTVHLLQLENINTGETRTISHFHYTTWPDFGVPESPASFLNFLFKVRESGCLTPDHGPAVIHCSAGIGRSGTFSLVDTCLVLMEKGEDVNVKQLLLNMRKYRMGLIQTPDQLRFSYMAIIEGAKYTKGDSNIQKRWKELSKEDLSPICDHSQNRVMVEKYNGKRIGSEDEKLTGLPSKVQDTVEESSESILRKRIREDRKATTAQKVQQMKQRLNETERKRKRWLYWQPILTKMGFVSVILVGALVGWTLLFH
Test: HiBiT Degradation B16F10.4 PTPN2
Type: cell-based
Settings: 24.0 hours
Property name: DC50

>  <Molecule>
Cn1c(=O)n(C2CCC(=O)NC2=O)c2ccc3c(c21)CCCN3C1CCN(C(=O)Nc2cccc(CS(=O)(=O)N3CC[C@H](Nc4cccc(-c5sc(C(=O)O)c(OCC(=O)O)c5Cl)c4)CC3(C)C)c2)CC1 (some centres unmarked)

>  <Result>
50 to 200 nM

$$$$
>  <Molecule>
Cn1c(=O)n(C2CCC(=O)NC2=O)c2ccc(C3CCN(CC(=O)Nc4cccc(CS(=O)(=O)N5CCC(Nc6cccc(-c7sc(C(=O)O)c(OCC(=O)O)c7Cl)c6)CC5(C)C)c4)CC3)cc21 (centres unmarked)

>  <Result>
50 to 200 nM

$$$$
>  <Molecule>
Cn1c(=O)n(C2CCC(=O)NC2=O)c2ccc(C3CCN(C(=O)Nc4cccc(CS(=O)(=O)N5CC[C@@H](Nc6cccc(-c7sc(C(=O)O)c(OCC(=O)O)c7Cl)c6)CC5(C)C)c4F)CC3)cc21 (some centres unmarked)

>  <Result>
50 to 200 nM

$$$$
>  <Molecule>
Cn1c(=O)n(C2CCC(=O)NC2=O)c2ccc(N3CCC(C(=O)Nc4cccc(CS(=O)(=O)N5CCC(Nc6cccc(-c7sc(C(=O)O)c(OCC(=O)O)c7Cl)c6)CC5)c4)CC3)cc21 (centres unmarked)

>  <Result>
50 to 200 nM

$$$$
>  <Molecule>
CC1(C)C[C@@H](Oc2cccc(-c3sc(C(=O)O)c(OCC(=O)O)c3Cl)c2)CCN1S(=O)(=O)Cc1cccc(NC(=O)N2CCC(c3ccc4c5c(cccc35)C(=O)N4C3CCC(=O)NC3=O)CC2)c1 (some centres unmarked)

>  <Result>
< 50 nM

$$$$

====

Target: PTPN2 (HiBIT-PTPN2 in 293T.109 cells) (Homo sapiens)
Construct: expressed in transfected cells; host or cells: 293T.109 (293T WT from ATCC)
Sequence (P17706 1-415): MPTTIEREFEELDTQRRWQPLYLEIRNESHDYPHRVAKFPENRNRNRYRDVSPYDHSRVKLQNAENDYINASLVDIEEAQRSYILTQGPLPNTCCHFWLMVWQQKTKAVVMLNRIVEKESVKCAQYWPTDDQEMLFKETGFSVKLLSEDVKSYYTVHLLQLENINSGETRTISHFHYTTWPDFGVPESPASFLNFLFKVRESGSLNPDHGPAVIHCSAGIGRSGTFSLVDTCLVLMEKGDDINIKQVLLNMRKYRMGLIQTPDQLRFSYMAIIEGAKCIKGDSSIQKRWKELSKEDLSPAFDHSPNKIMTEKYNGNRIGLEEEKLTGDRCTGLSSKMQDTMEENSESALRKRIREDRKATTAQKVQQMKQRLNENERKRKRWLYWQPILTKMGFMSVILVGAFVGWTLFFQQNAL
Experiment: HiBiT Degradation 293T.109 PTPN2 (Nano-Glo HiBiT Lytic Assay)
Type: cell-based
Conditions: 24.0 hours

>  <Compound>
Cn1c(=O)n(C2CCC(=O)NC2=O)c2ccc(N3CCC4(CC3)CN(C(=O)Nc3cccc(CS(=O)(=O)N5CCC(Nc6cccc(-c7sc(C(=O)O)c(OCC(=O)O)c7Cl)c6)CC5)c3)C4)cc21 (centres unmarked) [Example 102]

>  <DC50>
50 to 200 nM

$$$$
>  <Compound>
CC1(C)C[C@@H](Nc2cccc(-c3sc(C(=O)O)c(OCC(=O)O)c3Cl)c2)CCN1S(=O)(=O)Cc1cccc(NC(=O)N2CCC(c3ccc4c(c3)oc(=O)n4C3CCC(=O)NC3=O)CC2)c1 (some centres unmarked) [Example 68]

>  <DC50>
50 to 200 nM

$$$$
>  <Compound>
Cn1c(=O)n(C2CCC(=O)NC2=O)c2ccc(-c3ccc(CC(=O)Nc4cccc(CS(=O)(=O)N5CC[C@H](Nc6cccc(-c7sc(C(=O)O)c(OCC(=O)O)c7Cl)c6)CC5(C)C)c4)cc3F)cc21 (some centres unmarked) [Example 178]

>  <DC50>
50 to 200 nM

$$$$
>  <Compound>
O=C(O)COc1c(C(=O)O)sc(-c2cccc(NC3CCN(S(=O)(=O)Cc4cccc(NC(=O)CCCCCCNC(=O)CNc5ccc6c(c5)CN(C5CCC(=O)NC5=O)C6=O)c4)CC3)c2)c1Cl (centres unmarked) [Example 25]

>  <DC50>
200 to 1000 nM

$$$$
>  <Compound>
CC1(C)C[C@@H](Nc2cccc(-c3sc(C(=O)O)c(OCC(=O)O)c3Cl)c2)CCN1S(=O)(=O)Cc1cccc(NC(=O)N2CCC(c3ccc4c(c3)n(C(C)(C)C)c(=O)n4C3CCC(=O)NC3=O)CC2)c1 (some centres unmarked) [Example 186]

>  <DC50>
50 to 200 nM

$$$$

All values here come from patent US20250302815A1.
